Measured viability at 28.5 h, 10 µM by item
# testMethodNotes: in vitro
# measurementParameters: human, hela cells, % viability
Please give a number only; it is taken to be in %.

Below: 8 compounds and their reported viability at 28.5 h, 10 µM.
>>> testvalue("O=[N+]([O-])c1ccc(/C=N/Nc2nnc3c(n2)[nH]c2ccccc23)cc1")
97.8
>>> testvalue("O=C(NC1CC(=O)N(CCc2ccc(F)cc2)C1)c1cn2ccsc2n1 (stereo not drawn)")
100
>>> testvalue("Cc1nccc(C(=O)N2CCC3(C/C=C/C[C@H]4COCC[C@H]4NC(=O)CNC3=O)CC2)n1")
103
>>> testvalue("CCN(CC)CCN(CCc1ccc(OC)c(OC)c1)C(=O)Nc1ccc(Cl)cc1")
96.6
>>> testvalue("O=C(O)C1(c2ccc(Br)cc2)CCCC1")
87.3
>>> testvalue("CCOc1ccccc1Nc1c([N+](=O)[O-])nn(-c2ccc(OC)cc2)[n+]1[O-]")
90.2
>>> testvalue("CC[C@H]1CN(C(=O)Nc2cccc(OC)c2)CC[C@H]1CC(=O)O")
110
>>> testvalue("Cc1cc(C)nc(SCc2csc(N)n2)n1")
106

Next up:
Reported viability at 28.5 h, 10 µM for COCCCn1c(=O)[nH]c2ncc(-c3cnc(OC)nc3)nc21 was 92

###

# testMethodNotes: in vitro
# measurementParameters: human, hela cells, % viability
Label class 1 when viability at 28.5 h, 10 µM is strictly below 90%; at or above that, label class 0.

>>> discretelabel("Cc1csc(NC(=O)CN2CCC(c3ccc(F)cc3)CC2)n1")
"class 0"
>>> discretelabel("COc1cc(/C=N/NC(=O)CCN2CCN(C)CC2)cc2c1OCO2")
"class 0"
>>> discretelabel("O=C(O)CCC(CCC(=O)O)C(=O)O")
"class 0"

Given CN1CCN(c2snnc2CO)CC1 , is recorded viability at 28.5 h, 10 µM strictly lower than 90%? class 0

Consider the molecule Cn1c(CCC(=O)NCC(C)(C)N2CCCCC2)nc2ccccc21 . Is its viability at 28.5 h, 10 µM strictly less than 90%? class 0

Hi there! Is viability at 28.5 h, 10 µM for Cc1c(Cl)cccc1NC(=O)C(=O)NCCCN1CCOCC1 below 90%, do you know? class 0

Regarding CCN(CC)C(=O)CNS(=O)(=O)c1cc(Br)c(Cl)s1 , kindly confirm whether its viability at 28.5 h, 10 µM is beneath 90%. class 0

Determine whether this molecule shows viability at 28.5 h, 10 µM lower than 90% (ties excluded): COc1cccc(Cc2cccc(C3CCN(C(=O)Cc4ccccc4)CC3)n2)c1 class 0

Say whether its viability at 28.5 h, 10 µM is strictly beneath 90%. Entry: CCOC(=O)CN1CCC(Oc2nccnc2OCCN2CCOCC2)CC1 class 0

Determine whether this molecule shows viability at 28.5 h, 10 µM lower than 90% (ties excluded): COc1cccc(-c2ccc(C(=O)Nc3ccc4c(c3)OCO4)c(N3CCOCC3)n2)c1 class 0

Does the reported viability at 28.5 h, 10 µM of the following molecule sit strictly below 90%? COc1cc(CNC(=O)c2cccc(-c3ccc(OC4CCNCC4)cc3)n2)cc(OC)c1OC [CBK126550T] class 1

Please determine if OCc1ccccc1-c1nccnc1NCc1ccc2c(c1)OCO2 is below 90% in terms of viability at 28.5 h, 10 µM. class 0

Does this molecule meet the criterion viability at 28.5 h, 10 µM < 90%? Cc1ccc2cc(C3CC(c4ccccc4)=NN3C(=O)CCC(=O)O)c(=O)[nH]c2c1 (stereo not drawn) class 0

Lab log: compare recorded viability at 28.5 h, 10 µM with 90%; is it strictly lower for Cc1nc(NS(=O)(=O)c2ccc3ccccc3c2)sc1C(=O)O ? class 0

Bench note: check whether NC(=O)c1cccnc1N1CCNCC1 [CBK025310C] shows viability at 28.5 h, 10 µM below 90% class 1

# check: viability at 28.5 h, 10 µM < 90% for COCCNC(=O)N[C@H](Cc1ccccc1)C(=O)O class 1

Does this molecule meet the criterion viability at 28.5 h, 10 µM < 90%? COc1ccc(C(C)C)cc1-c1cn2ccnc2c(N(C)CCN(C)C)n1 class 0

Lab note: confirm whether the reported viability at 28.5 h, 10 µM for this molecule is below 90%, equality not counting. molecule: COCCNc1nc(-c2cc(C(C)C)ccc2OC)ccc1C(=O)Nc1cccc(OC)c1 class 0

Dear reviewer, please state whether Nc1ncc([C@@H]2O[C@H](CO)[C@H](O)C2O)c(=O)[nH]1 (stereo partly drawn) has viability at 28.5 h, 10 µM strictly beneath 90%. class 1

Input COC(=O)c1ccccc1NC(=O)CN(C)S(=O)(=O)c1c(C)cc(C)cc1C ; condition: viability at 28.5 h, 10 µM strictly below 90%. Does it hold? class 0

I wonder whether Cc1ccc2c(c1)CCCN2C(=O)c1cnc2c(c1)c(C)nn2C has viability at 28.5 h, 10 µM below 90%. Can you tell? class 0

viability at 28.5 h, 10 µM strictly < 90% for this molecule? CCN(CC)c1ccc(SC)n1C class 0

I wonder whether Cc1cc(F)ccc1S(=O)(=O)NCC1CC(=O)Nc2ccccc21 (stereo not drawn) has viability at 28.5 h, 10 µM below 90%. Can you tell? class 1

Please determine if CCN1CCN(C(=O)c2c(C)noc2C)CC1 is below 90% in terms of viability at 28.5 h, 10 µM. class 0

Is viability at 28.5 h, 10 µM of COc1ccc2c(c1)nc1n2CCC1OC(C)=O (stereo not drawn) strictly below 90%? class 0

###

Below, each of the molecules is paired with its reported viability at 28.5 h, 10 µM value.
# testMethodNotes: in vitro
# measurementParameters: human, hela cells, % viability
Response body: numeric value in %, unit text excluded.

Observe how each entry below is paired with its result.
>>> testvalue("COc1ccc(NC(=O)CCCSc2nc(N)c3c(C)c(C)sc3n2)cc1 [CBK266547]")
105
>>> testvalue("COc1ccc(C2CC(=O)C=C(Nc3cc(Cl)ccc3O)C2)cc1 (centres unmarked) [CBK263542]")
105
>>> testvalue("O=C1COc2ccccc2C/C=C/CC2(CCN(C(=O)Cn3cccn3)CC2)C(=O)NCCN1 [CBK292003]")
117
>>> testvalue("N=c1n(CC(=O)c2ccc(Br)s2)c2ccccc2n1Cc1ccccc1 [CBK262482B]")
91.4
>>> testvalue("O=C([C@H]1CN2CCC1C[C@@H]2Cn1cc(COc2ccccc2)nn1)N1CCOCC1 (some centres unmarked) [CBK288734]")
113

Briefly, viability at 28.5 h, 10 µM measured for C[C@]12CN(Cc3cccc(C#Cc4ccccc4)c3)C[C@H]1C(=O)Nc1ccccc1C(=O)N2 [CBK286403] : 94.9

Record O=C(C1=C(O)C(=O)N(CCCn2ccnc2)C1c1ccncc1)c1ccccc1 (centres unmarked) [CBK264527] , field viability at 28.5 h, 10 µM: 91.6

###

# testMethodNotes: in vitro
# measurementParameters: human, hela cells, % viability
Reported viability at 28.5 h, 10 µM values for a set of molecules
Respond numerically; units are % and should not be typed.

Answered examples (5):
>>> testvalue("CCC1(C)CCCN(Cc2nnnn2-c2ccc(S(C)(=O)=O)cc2)C1 (stereo not drawn)")
113
>>> testvalue("Cc1nc2c(c(=O)[nH]1)CC[C@@H]1CN(C(=O)CCc3ccccc3)C[C@H]21")
95.9
>>> testvalue("O=C(Nc1ncc(Cc2ccc(F)cc2)s1)c1ccc(-c2ccc(F)cc2)o1")
99.5
>>> testvalue("Cc1ccc(C23CC4CC(CC(C(=O)NC(C(=O)O)C(C)C)(C4)C2)C3)cc1 (stereo not drawn)")
110
>>> testvalue("CN(C(=O)CN1CCN(c2cc(-c3cc(C(F)(F)F)cc(C(F)(F)F)c3)ncn2)CC1)c1ccccc1")
103

Briefly, viability at 28.5 h, 10 µM measured for O=C(CCn1cccn1)N1CCC(c2cc3ncccc3[nH]2)CC1 : 83.6

response.value for O=C(Cc1cc(F)cc(F)c1F)Nc1cccc2[nH]ccc12 (field: viability at 28.5 h, 10 µM) = 89

Noted for Nc1nc(CCC(=O)N2Cc3cnn(Cc4ccc(F)cc4)c3C2)cs1 : its viability at 28.5 h, 10 µM reads 99.6

The molecule CN(c1ccc(C(=O)Nc2ccc(S(=O)(=O)N3CCCC3)cc2)cc1)S(=O)(=O)c1ccccc1 showed viability at 28.5 h, 10 µM equal to 102

###

Let's look at some compounds and their measured viability at 28.5 h, 10 µM.
# testMethodNotes: in vitro
# measurementParameters: human, hela cells, % viability
Write the answer as a number in %, unit excluded.

>>> testvalue("CC(C)NC(=O)N1CCCC2(C1)NCCc1c2[nH]c2ccccc12 (stereo not drawn)")
86.7

Short answer for CN(C)C(=O)C1CN(C(=O)C(C)(C)c2ccccc2F)C1 : viability at 28.5 h, 10 µM was 113

Measured viability at 28.5 h, 10 µM, O=C(Nc1cncc(OC2CCNCC2)n1)c1cnc2ccccc2c1 [CBK036377T] : 92.8

Lab book: viability at 28.5 h, 10 µM of Cc1nn(CCC(=O)NC(C)(C)CN2CCCC(C)C2)c(C)c1C (stereo not drawn) noted as 91.4

Reported viability at 28.5 h, 10 µM for CC1=C[C@@H](CO)[C@H](C(C)C)C[C@H]1CC(=O)N1CCN(CCO)CC1 was 85.7

Lab book: viability at 28.5 h, 10 µM of Cc1cccnc1NC(=O)c1cccc(C(=O)Nc2ncccc2C)c1 noted as 88.6

Reported viability at 28.5 h, 10 µM for O=C1Nc2ccc(-c3cccc(C(F)(F)F)c3)cc2C(=O)N2CCN(C(=O)C3CC3)C[C@H]12 was 79.4

Reported viability at 28.5 h, 10 µM of CC(C)c1n[nH]c(=S)n1C1CCc2ccccc21 (stereo not drawn) : 87.1

Reported viability at 28.5 h, 10 µM of O=C(Nc1cccc2[nH]ccc12)c1ccoc1 : 94.8
